pIC50: −log10 of the molar value.
List of pIC50 tested on PI3Kδ (Homo sapiens, UniProt O00329).
Sequence (O00329 whole entry): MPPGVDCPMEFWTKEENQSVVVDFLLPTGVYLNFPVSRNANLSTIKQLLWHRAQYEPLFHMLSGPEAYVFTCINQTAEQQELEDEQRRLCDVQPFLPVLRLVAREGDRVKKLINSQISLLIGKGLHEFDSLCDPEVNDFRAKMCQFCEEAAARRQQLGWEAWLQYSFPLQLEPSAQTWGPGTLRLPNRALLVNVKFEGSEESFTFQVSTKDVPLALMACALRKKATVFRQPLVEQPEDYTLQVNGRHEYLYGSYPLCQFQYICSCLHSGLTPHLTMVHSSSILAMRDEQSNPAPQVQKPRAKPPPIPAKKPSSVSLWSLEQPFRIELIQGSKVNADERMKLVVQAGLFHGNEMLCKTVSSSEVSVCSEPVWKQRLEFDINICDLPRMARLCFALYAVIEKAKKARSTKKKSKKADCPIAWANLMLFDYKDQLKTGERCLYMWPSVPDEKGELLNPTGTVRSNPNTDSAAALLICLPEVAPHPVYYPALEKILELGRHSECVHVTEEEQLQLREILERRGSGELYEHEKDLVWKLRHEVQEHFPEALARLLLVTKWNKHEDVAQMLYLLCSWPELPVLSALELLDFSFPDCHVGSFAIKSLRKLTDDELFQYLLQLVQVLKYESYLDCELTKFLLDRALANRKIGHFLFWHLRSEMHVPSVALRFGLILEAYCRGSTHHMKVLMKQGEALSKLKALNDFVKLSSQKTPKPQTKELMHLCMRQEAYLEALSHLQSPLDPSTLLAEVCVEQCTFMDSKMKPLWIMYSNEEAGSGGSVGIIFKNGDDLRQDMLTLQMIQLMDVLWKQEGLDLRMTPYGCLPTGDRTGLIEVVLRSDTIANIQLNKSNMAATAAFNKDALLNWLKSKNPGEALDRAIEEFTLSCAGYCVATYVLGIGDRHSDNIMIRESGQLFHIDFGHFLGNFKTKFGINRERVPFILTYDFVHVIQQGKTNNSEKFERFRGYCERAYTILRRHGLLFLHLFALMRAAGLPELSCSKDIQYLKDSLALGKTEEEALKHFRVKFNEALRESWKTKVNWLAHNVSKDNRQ
Sequence (P27986 whole entry partner): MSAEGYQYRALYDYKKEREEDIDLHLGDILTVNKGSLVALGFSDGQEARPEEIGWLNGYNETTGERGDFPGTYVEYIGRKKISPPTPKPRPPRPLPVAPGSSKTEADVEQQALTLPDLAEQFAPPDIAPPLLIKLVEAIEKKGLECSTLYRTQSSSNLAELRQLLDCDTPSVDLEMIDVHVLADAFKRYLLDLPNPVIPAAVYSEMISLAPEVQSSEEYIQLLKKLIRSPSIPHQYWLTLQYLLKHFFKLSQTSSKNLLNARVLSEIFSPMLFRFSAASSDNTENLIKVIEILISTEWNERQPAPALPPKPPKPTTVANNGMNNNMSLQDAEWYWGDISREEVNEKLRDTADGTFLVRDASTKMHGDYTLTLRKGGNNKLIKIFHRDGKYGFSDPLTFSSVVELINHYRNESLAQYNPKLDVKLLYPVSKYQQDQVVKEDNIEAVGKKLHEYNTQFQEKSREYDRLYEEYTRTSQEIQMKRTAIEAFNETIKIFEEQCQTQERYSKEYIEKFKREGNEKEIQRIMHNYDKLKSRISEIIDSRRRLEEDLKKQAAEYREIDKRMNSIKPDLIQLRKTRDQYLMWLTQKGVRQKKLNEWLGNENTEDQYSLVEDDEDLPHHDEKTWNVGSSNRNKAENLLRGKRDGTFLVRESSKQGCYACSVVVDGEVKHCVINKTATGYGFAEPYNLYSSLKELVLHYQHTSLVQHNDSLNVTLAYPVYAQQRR
endpoint: pIC50

1. COc1cc(-c2nn(C3Cc4ccccc4C3)c3ncnc(N)c23)ccc1N
2. C=CC(=O)N1CC(n2nc(-c3cnc(OC)c(F)c3)c3c(N)ncnc32)Cc2cc(C)ccc21 (stereo not shown)
3. Nc1ncnc2c1c(-c1cc(O)cc(F)c1)nn2C1CCc2ccccc2C1 (single isomer, unassigned) [6b]
4. C=CC(=O)N1CC(n2nc(-c3cc(O)cc(F)c3)c3c(N)ncnc32)Cc2cc(C)ccc21 (single isomer, unassigned) [31a]
input: # desc sort on pIC50 across 4 compounds API: response body holds the labels in the requested order.
output: 3, 4, 1, 2
(3: 8.11, 4: 7.56, 1: 6.34, 2: 5.83)
